Reported IC50 values for the following molecules.
Biological target: cathepsin K (Homo sapiens, UniProt P43235)
Construct: the active enzyme was obtained as the enzyme fraction by using detergent containing lysis buffer; made in house; host or cells: HEK293T (GenHunter Corporation), transient expression; detergent lysate used as enzyme fraction
Sequence (P43235 115-329): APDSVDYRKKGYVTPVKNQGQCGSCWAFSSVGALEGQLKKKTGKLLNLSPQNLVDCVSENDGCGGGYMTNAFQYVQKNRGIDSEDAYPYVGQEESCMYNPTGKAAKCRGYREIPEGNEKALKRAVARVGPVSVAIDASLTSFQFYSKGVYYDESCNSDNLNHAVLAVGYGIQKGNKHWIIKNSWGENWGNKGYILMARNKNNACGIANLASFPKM
Assay: Cathepsin K inhibitory activity (fluorescent substrate Z-Leu-Arg-MCA)
Type: biochemical
Settings: enzyme expressed in HEK293T; 15 min preincubation, 30 min reaction at room temperature, pH 5.5; read-out: Activity Intensity (cathepsin K inhibitory activity, pIC50 class) (converted)
Property name: IC50

>  <Molecule>
CCOC(=O)CCCCOc1ccc(NC[C@H](CC)NC(=O)[C@H](CC(C)C)N[C@@H](c2ccccc2)C(F)(F)F)c(OC)c1 [Compound 86]

>  <Experimental result>
≤ 3.16 nM

$$$$
>  <Molecule>
CC(C)C[C@H](N[C@@H](c1ccccc1)C(F)(F)F)C(=O)N[C@@H](CCC#N)CNc1ccc(N2CCOCC2)cc1 [Compound 92]

>  <Experimental result>
≤ 3.16 nM

$$$$
>  <Molecule>
CC[C@@H](CNc1ccc(OC)cc1OC)NC(=O)C1(NC(c2ccccc2)C(F)(F)F)CCCCC1 (stereo partly shown) [Compound 8]

>  <Experimental result>
3.16 to 31.6 nM

$$$$
>  <Molecule>
CC[C@@H](CNc1ccc(N2CCC(O)CC2)cc1)NC(=O)[C@H](CC(C)C)N[C@@H](c1ccccc1)C(F)(F)F [Compound 108]

>  <Experimental result>
≤ 3.16 nM

$$$$
>  <Molecule>
CC[C@@H](CNc1ccc(-c2ccccc2)cc1)NC(=O)[C@H](CC(C)C)N[C@@H](c1ccc(OC)nc1)C(F)(F)F [Compound 46]

>  <Experimental result>
31.6 to 10000 nM

$$$$
>  <Molecule>
CC[C@@H](CNc1ccc(OC)cc1OC)NC(=O)[C@@H](N[C@@H](c1ccccc1)C(F)(F)F)[C@@H](C)CC [Compound 60]

>  <Experimental result>
3.16 to 31.6 nM

$$$$
>  <Molecule>
COc1ccc([C@H](N[C@@H](CC(C)C)C(=O)N[C@H](CNc2ccc(OC)cc2OC)CC(C)C)C(F)(F)F)cc1 [Compound 65]

>  <Experimental result>
≤ 3.16 nM

$$$$

###

Reported IC50 values for the following molecules.
molecular target: cathepsin K (Homo sapiens, UniProt P43235); construct: the active enzyme was obtained as the enzyme fraction by using detergent containing lysis buffer; made in house; host or cells: HEK293T (GenHunter Corporation), transient expression; detergent lysate used as enzyme fraction; experiment: Cathepsin K inhibitory activity (fluorescent substrate Z-Leu-Arg-MCA); assay type: biochemical; conditions: enzyme expressed in HEK293T; 15 min preincubation, 30 min reaction at room temperature, pH 5.5; read-out: Activity Intensity (cathepsin K inhibitory activity, pIC50 class) (converted)
Property name: IC50

>  <Molecule>
CC[C@@H](CNc1ccc(N2CCOCC2)cc1)NC(=O)[C@H](CC(C)C)N[C@@H](c1ccc(OCCOC)cc1)C(F)(F)F [Compound 30]

>  <Property name>
IC50

>  <Experimental result>
≤ 3.16 nM

$$$$
>  <Molecule>
CC[C@@H](CNc1ccc(-n2nccc2C(=O)O)cc1)NC(=O)[C@H](CC(C)C)N[C@@H](c1ccc(OC)nc1)C(F)(F)F [Compound 144]

>  <Property name>
IC50

>  <Experimental result>
31.6 to 10000 nM

$$$$
>  <Molecule>
CC[C@@H](CNc1ccc(N2CCOCC2)cc1)NC(=O)[C@H](CC(C)C)N[C@@H](c1ccc(=O)[nH]c1)C(F)(F)F [Compound 31]

>  <Property name>
IC50

>  <Experimental result>
≤ 3.16 nM

$$$$
>  <Molecule>
CC[C@@H](CNc1ccc(N2CCOCC2)cc1)NC(=O)[C@H](CC(C)C)N[C@@H](c1ccc(Cl)cc1)C(F)(F)F [Compound 34]

>  <Property name>
IC50

>  <Experimental result>
≤ 3.16 nM

$$$$
>  <Molecule>
CC[C@@H](CNc1ccc(N2CCOCC2)cc1)NC(=O)[C@H](CC(C)(C)F)N[C@@H](c1ccc(-c2ccc(S(C)(=O)=O)cc2)cc1)C(F)(F)F [Compound 9]

>  <Property name>
IC50

>  <Experimental result>
≤ 3.16 nM

$$$$
>  <Molecule>
CC(C)C[C@H](N[C@@H](c1ccccc1)C(F)(F)F)C(=O)N[C@@H](C)CNc1ccc(N2CCOCC2)cc1 [Compound 71]

>  <Property name>
IC50

>  <Experimental result>
≤ 3.16 nM

$$$$
>  <Molecule>
CCOC(=O)c1ccnn1-c1ccc(NC[C@H](CC)NC(=O)[C@H](CC(C)C)N[C@@H](c2ccc(OC)nc2)C(F)(F)F)cc1 [Compound 115]

>  <Property name>
IC50

>  <Experimental result>
31.6 to 10000 nM

$$$$
>  <Molecule>
CC[C@@H](CNc1ccc(OCC(=O)NCCO)cc1OC)NC(=O)[C@H](CC(C)(C)F)N[C@@H](c1ccccc1)C(F)(F)F [Compound 137]

>  <Property name>
IC50

>  <Experimental result>
≤ 3.16 nM

$$$$
>  <Molecule>
CC[C@@H](CNc1ccc(OC)cc1OC)NC(=O)[C@H](Cc1ccccc1)N[C@@H](c1cccs1)C(F)(F)F [Compound 62]

>  <Property name>
IC50

>  <Experimental result>
31.6 to 10000 nM

$$$$
>  <Molecule>
CC(C)(F)C[C@H](N[C@@H](c1ccccc1)C(F)(F)F)C(=O)N[C@@H](CCN)CNc1ccc(N2CCOCC2)cc1 [Compound 130]

>  <Property name>
IC50

>  <Experimental result>
3.16 to 31.6 nM

$$$$
>  <Molecule>
CC[C@@H](CNc1ccc(OCC(=O)N(C)C)cc1OC)NC(=O)[C@H](CC(C)(C)F)N[C@@H](c1ccccc1)C(F)(F)F [Compound 134]

>  <Property name>
IC50

>  <Experimental result>
≤ 3.16 nM

$$$$
>  <Molecule>
COc1ccc(NC[C@H](C)NC(=O)[C@H](CC(C)C)N[C@@H](c2cccnc2)C(F)(F)F)c(OC)c1 [Compound 78]

>  <Property name>
IC50

>  <Experimental result>
3.16 to 31.6 nM

$$$$
>  <Molecule>
CC[C@@H](CNc1ccc(-c2ccccc2)cc1)NC(=O)[C@H](CC(C)C)N[C@@H](c1ccccc1)C(F)(F)F [Compound 45]

>  <Property name>
IC50

>  <Experimental result>
31.6 to 10000 nM

$$$$
>  <Molecule>
CC(C)C[C@H](N[C@@H](c1ccc(S(C)(=O)=O)cc1)C(F)(F)F)C(=O)N[C@@H](C)CNc1ccc(N2CCOCC2)cc1 [Compound 73]

>  <Property name>
IC50

>  <Experimental result>
≤ 3.16 nM

$$$$
>  <Molecule>
CCOC(=O)C1CCN(c2ccc(NC[C@H](CC)NC(=O)[C@H](CC(C)(C)F)N[C@@H](c3ccccc3)C(F)(F)F)cc2)CC1 [Compound 55]

>  <Property name>
IC50

>  <Experimental result>
≤ 3.16 nM

$$$$
>  <Molecule>
CC(C)C[C@H](N[C@@H](c1ccccc1)C(F)(F)F)C(=O)N[C@@H](CCCC(=O)O)CNc1ccc(N2CCOCC2)cc1 [Compound 159]

>  <Property name>
IC50

>  <Experimental result>
≤ 3.16 nM

$$$$
>  <Molecule>
CC[C@@H](CNc1ccc(OCCCC(=O)O)cc1OC)NC(=O)[C@H](CC(C)C)N[C@@H](c1ccccc1)C(F)(F)F [Compound 155]

>  <Property name>
IC50

>  <Experimental result>
≤ 3.16 nM

$$$$
>  <Molecule>
CC[C@@H](CNc1ccc(OC2(C(=O)O)CC2)cc1OC)NC(=O)[C@H](CC(C)C)N[C@@H](Cc1ccccc1)C(F)(F)F [Compound 124]

>  <Property name>
IC50

>  <Experimental result>
3.16 to 31.6 nM

$$$$
>  <Molecule>
CC[C@@H](CNc1ccc(OCC(F)(F)C(F)F)cc1OC)NC(=O)[C@H](CC(C)(C)F)N[C@@H](c1ccccc1)C(F)(F)F [Compound 22]

>  <Property name>
IC50

>  <Experimental result>
3.16 to 31.6 nM

$$$$
>  <Molecule>
CC[C@@H](CNc1ccc(OCc2ccccc2)cc1)NC(=O)[C@H](CC(C)C)N[C@@H](c1ccc(OC)cc1)C(F)(F)F [Compound 97]

>  <Property name>
IC50

>  <Experimental result>
3.16 to 31.6 nM

$$$$
>  <Molecule>
CC[C@@H](CNc1ccc(OCc2ccccc2)cc1)NC(=O)[C@H](CC(C)C)N[C@@H](c1ccccc1)C(F)(F)F [Compound 96]

>  <Property name>
IC50

>  <Experimental result>
3.16 to 31.6 nM

$$$$
>  <Molecule>
CC[C@@H](CNc1ccc(N2CCOCC2)cc1)NC(=O)[C@H](CC(C)C)N[C@@H](c1ccc(OC)nc1)C(F)(F)F [Compound 26]

>  <Property name>
IC50

>  <Experimental result>
≤ 3.16 nM

$$$$
>  <Molecule>
COc1ccc(NC[C@H](C)NC(=O)[C@H](CC(C)C)N[C@@H](c2ccc(OC)nc2)C(F)(F)F)c(OC)c1 [Compound 79]

>  <Property name>
IC50

>  <Experimental result>
3.16 to 31.6 nM

$$$$
>  <Molecule>
CC[C@@H](CNc1ccc(N2CCOCC2)cc1)NC(=O)[C@H](CC(C)C)N[C@@H](c1ccc2c(c1)OCO2)C(F)(F)F [Compound 29]

>  <Property name>
IC50

>  <Experimental result>
≤ 3.16 nM

$$$$
>  <Molecule>
CC[C@@H](CNc1ccc(OCCCC(=O)OC)cc1OC)NC(=O)[C@H](CC(C)C)N[C@@H](c1ccccc1)C(F)(F)F [Compound 85]

>  <Property name>
IC50

>  <Experimental result>
≤ 3.16 nM

$$$$
>  <Molecule>
CC[C@@H](CNc1ccc(N2CCC(C(=O)O)CC2)cc1)NC(=O)[C@H](CC(C)C)N[C@@H](c1ccc(OC)nc1)C(F)(F)F [Compound 146]

>  <Property name>
IC50

>  <Experimental result>
≤ 3.16 nM

$$$$
